Value source: ChEMBL document CHEMBL1122208

- experimentalSystem: Cytochrome P450 2B1 (Rattus norvegicus, UniProt P00176)
- Sequence (P00176 whole entry): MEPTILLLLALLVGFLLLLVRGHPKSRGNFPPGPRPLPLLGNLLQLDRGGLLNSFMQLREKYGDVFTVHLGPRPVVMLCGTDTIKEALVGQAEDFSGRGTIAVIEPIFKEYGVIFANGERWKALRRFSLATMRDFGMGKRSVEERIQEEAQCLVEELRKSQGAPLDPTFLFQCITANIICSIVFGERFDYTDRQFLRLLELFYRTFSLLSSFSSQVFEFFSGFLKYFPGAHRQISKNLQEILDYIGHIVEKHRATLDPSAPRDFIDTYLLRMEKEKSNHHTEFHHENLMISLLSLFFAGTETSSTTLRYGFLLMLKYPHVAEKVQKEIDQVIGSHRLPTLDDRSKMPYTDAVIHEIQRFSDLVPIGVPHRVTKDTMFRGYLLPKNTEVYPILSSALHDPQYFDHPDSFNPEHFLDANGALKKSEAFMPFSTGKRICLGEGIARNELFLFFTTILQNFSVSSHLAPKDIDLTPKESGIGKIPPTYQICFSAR
- assayText: Interaction with cytochrome P450 in Phenobarbitone-induced rat hepatic microsomes
- Assay type: ADME, Liver
- conditionParameters: read-out: Ks
pKd: −log10 of the molar value.
Kindly return true (1) if reported pKd is no lower than 4; return false (0) if it is lower.

Kindly determine if pKd recorded for Cc1cc2nc[nH]c2cc1C [DIMEDAZOL] is above or exactly 4.
true (1)

# bool: pKd of `c1ccc(-c2c[nH]cn2)cc1` >= 4
true (1)

Is the recorded value of pKd equal to or greater than 4 for this compound? `Cc1ccc2[nH]cnc2c1`
true (1)

Check the entry `Cc1nc2ccccc2[nH]1` : does pKd equal or exceed 4?
false (0)

###

- experimentalSystem: aryl hydrocarbon hydroxylase (cytochrome P450 1A1) (Rattus norvegicus, UniProt P00185)
- Sequence (P00185 whole entry): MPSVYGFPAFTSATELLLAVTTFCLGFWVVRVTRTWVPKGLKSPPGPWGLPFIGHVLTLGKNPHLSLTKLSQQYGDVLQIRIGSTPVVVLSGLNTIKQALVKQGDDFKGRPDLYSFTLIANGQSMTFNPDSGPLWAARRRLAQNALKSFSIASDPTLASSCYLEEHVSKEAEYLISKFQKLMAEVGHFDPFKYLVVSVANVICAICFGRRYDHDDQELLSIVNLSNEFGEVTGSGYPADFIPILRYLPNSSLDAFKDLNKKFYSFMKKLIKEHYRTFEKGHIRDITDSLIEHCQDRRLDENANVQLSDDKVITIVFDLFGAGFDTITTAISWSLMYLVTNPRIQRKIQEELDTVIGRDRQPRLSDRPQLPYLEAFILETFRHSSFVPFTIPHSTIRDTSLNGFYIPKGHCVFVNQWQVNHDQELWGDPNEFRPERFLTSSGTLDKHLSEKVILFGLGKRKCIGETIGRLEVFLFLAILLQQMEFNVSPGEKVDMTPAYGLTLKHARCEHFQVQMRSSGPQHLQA
- assayText: Effect on Aryl hydrocarbon hydroxylase activity in 3-methylcolanthrene-induced rat liver microsomes at 3.6x10E-4M
- Type: ADME, Microsome
- conditionParameters: 3-methylcholanthrene-induced rat liver microsomes, read-out: Control
reportedMetric: activity at 0.00036 M (%)
Give just the numeric value; % need not be written.

Report measured activity at 0.00036 M; entry is `CCCCCc1nc2ccccc2[nH]1`
89

###

- experimentalSystem: aryl hydrocarbon hydroxylase (cytochrome P450 1A1) (Rattus norvegicus, UniProt P00185)
- assayText: Effect on Aryl hydrocarbon hydroxylase activity in 3-methylcolanthrene-induced rat liver microsomes at 2.3x10E-4M
- Format: ADME, Microsome
- conditionParameters: 3-methylcholanthrene-induced rat liver microsomes, read-out: Control
reportedMetric: activity at 0.00023 M (%)
API: value field is a number in %; no unit string.

Give the reported value of activity at 0.00023 M for this record: `Cc1nc2cc(C)c(C)cc2[nH]1`
77
